Every entry's value here was drawn from patent US10785975B2.

Test system: Salmonella typhimurium
Assay: Example 2: effect of carbon chain length of individual organic acids on antimicrobial activity in water
Format: cell-based
Details: Salmonella enterica, TYPHIMURIUM; Product Conc. 0.075 (% acid solution in water); 4 hr; read-out: Salmonella at time Interval 4 hr % reduction
Observable: killing at 0.075 % (%)
Use % as the unit, but write only the number.

Query: Entry CCCCCCCC(=O)O needs its killing at 0.075 % filled in; supply it.
Result: 31

Query: Entry CCCCCCCCCCCC(=O)O needs its killing at 0.075 % filled in; supply it.
Result: 100

====

Tested on: Salmonella typhimurium
Test: Example 1: effect of pH buffering of acetic and propionic acid on antimicrobial activity in water
Assay type: cell-based
Details: Product Conc. 0.025 (% acid solution in water); 24 hr
Observable: Salmonella at time Interval 24 hr % reduction
Answers without a unit are incomplete; give the number and then its unit.

>>> value_measured("CC(=O)O [Acetic pH 1, Acetic acid]")
"91%"
>>> value_measured("CC(=O)O [Acetic pH 5, Acetic acid]")
"16%"
>>> value_measured("CCC(=O)O [Propionic pH 5, Propionic acid]")
"33%"
>>> value_measured("CC(=O)O [Acetic pH 6, Acetic acid]")
"1%"
>>> value_measured("CCC(=O)O [Propionic pH 4, Propionic acid]")
"48%"
>>> value_measured("CC(=O)O [Acetic pH 2, Acetic acid]")
"86%"

Query: Entry CC(=O)O [Acetic pH 3, Acetic acid] needs its Salmonella at time Interval 24 hr % reduction filled in; supply it.
Result: 75%

Query: Entry CCC(=O)O [Propionic pH 1, Propionic acid] needs its Salmonella at time Interval 24 hr % reduction filled in; supply it.
Result: 89%
